Origin of measurements: ChEMBL document CHEMBL5030527

# test method notes: Solubility of the compound
# Format: physicochemical
measurement type: solubility (%)

Worked cases, answers included:
>  <compound>
CCCO[C@@H]1O[C@H](CO)[C@@H](O)[C@H](O)[C@H]1NC(=O)c1ccc(S(N)(=O)=O)cc1

>  <units text>
%

>  <solubility>
2

$$$$
>  <compound>
CC(C)O[C@@H]1O[C@H](CO)[C@@H](O)[C@H](O)[C@H]1NC(=O)c1ccc(S(N)(=O)=O)cc1

>  <units text>
%

>  <solubility>
2

$$$$
>  <compound>
CCC(=O)N[C@@H]1O[C@H](CO)[C@@H](O)[C@H](O)[C@H]1NC(=O)c1ccc(S(N)(=O)=O)cc1

>  <units text>
%

>  <solubility>
2.5

$$$$
>  <compound>
CC(=O)N[C@@H]1O[C@H](CO)[C@@H](O)[C@H](O)[C@H]1NC(=O)c1ccc(S(N)(=O)=O)cc1

>  <units text>
%

>  <solubility>
2.5

$$$$

P. CCN[C@H]1CN(CCCOC)S(=O)(=O)c2sc(S(N)(=O)=O)cc21 [BRINZOLAMIDE]
Q. CO[C@@H]1O[C@H](CO)[C@@H](O)[C@H](O)[C@H]1NC(=O)c1ccc(S(N)(=O)=O)cc1
R. CCN[C@H]1C[C@H](C)S(=O)(=O)c2sc(S(N)(=O)=O)cc21 [DORZOLAMIDE]
Req: Please list the entries, largest solubility first. Hello, could you send the labels back in the order asked? Thank you.
Resp: Q, R, P

A. CCO[C@@H]1O[C@H](CO)[C@@H](O)[C@H](O)[C@H]1NC(=O)c1ccc(S(N)(=O)=O)cc1
B. CC(=O)Nc1nnc(S(N)(=O)=O)s1 [ACETAZOLAMIDE]
Req: Thinking about recorded solubility values, which is higher, A or B ? Provide the label of your selected option as the answer.
Resp: A
